# assay summary: protein stability index of a GFP-peptide fusion (GPS, HEK-293T) (PSI 1-6); higher = more stable;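 further: 24-mer peptide tiles fused after GFP, lentivirally expressed, FACS-sorted into six equal bins by GFP/DsRed ratio, decoded by Illumina sequencing, PSI is the read-weighted mean bin number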
# measurement context: treatment: DMSO; c terminus: a fixed tail appended
quantity kind: protein stability index
Give bare numbers.

Here's what some known entries look like.
{"sequence input": "TSKCGSLKNIRHRPGGGRVKIESV [MAP2]", "protein stability index": 3.1}
{"sequence input": "SQVMGSGRGSLSSGGQTSWDSGCL [PLEKHN1]", "protein stability index": 4.02}
{"sequence input": "DCRYPYEYEGGHIKTAVNLPLERD [CDC25B]", "protein stability index": 4.13}

Hi team, please reply with protein stability index for each item in this list.
1. LLKFDNSYSLWRSKSVYYRVYYTR [ACBD3]
2. KEQAIWKHPQPAPAVTPDPWGVQG [PKD2L1]

// result
1. 2.41
2. 3.75
